Test system: SNU-423
test method notes: Inhibition of in vitro proliferation of tumor cells (CTG, CellTiter-Glo)
Format: cell-based
measurement conditions: Homo sapiens, 120 h; racemates; SNU-423 cells; 5 days of culture; CTG reagent; read-out: Proliferation inhibitory activity IC50 (nM) SNU-423
parameter: IC50 (nM)

compound	observed value
COC(=O)[C@H]1[C@@H](O)[C@@]2(O)c3c(OC)cc(-c4cnco4)cc3O[C@@]2(c2ccc(C#N)cc2)[C@@H]1c1cccc(N)c1 (racemic) [Racemate of compound 3]	8.18
COC(=O)[C@H]1[C@@H](O)[C@@]2(O)c3c(OC)cc(-c4ncco4)cc3O[C@@]2(c2ccc(C#N)cc2)[C@@H]1c1cccc(N)c1 (racemic) [Racemate of compound 2]	3.67
COc1ccc([C@@]23Oc4cc(OC)cc(OC)c4[C@]2(O)[C@H](O)[C@H](C(=O)N(C)C)[C@H]3c2ccccc2)cc1 [Rocaglamide, reference compound]	14.4

###

Listing of entries alongside the reported IC50.
Tested on: BT474
test method notes: Inhibition of in vitro proliferation of tumor cells (CTG, CellTiter-Glo)
Type: cell-based
measurement conditions: Homo sapiens, BT-474, 120 h, racemates, 5 days of culture, CTG reagent, read-out: Proliferation inhibitory activity IC50 (nM) BT474
Experimental: Assay objective: To detect the inhibitory effects of the drug compounds on tumor cell proliferation, for example, the inhibitory activity thereof on the in vitro proliferation of NCI-H716, NCI-H1975, NCI-H1373, NCI-H647, NCI-H520, BT474, DLD-1, NCI-N87, NUGC-4, SNU-423, MKN-45, SK-OV-3, OVCAR3, Ls174T, HCC1954, and ES2 tumor cells. […] Plate reading: The 96-well cell culture plate was taken out and placed in a microplate reader, and the chemiluminescence was measured using the microplate reader. […]

compound	assay system	IC50 (nM)
COc1ccc([C@@]23Oc4cc(-c5ncco5)cc(OC)c4[C@]2(O)[C@H](O)[C@H](C(=O)N2CC(O)C2)[C@H]3c2ccccc2)cc1 (racemic) [Racemate of compound 48]	BT474	2.25
COc1ccc([C@@]23Oc4cc(OC)cc(OC)c4[C@]2(O)[C@H](O)[C@H](C(=O)N(C)C)[C@H]3c2ccccc2)cc1 [Rocaglamide, reference compound]	BT474	5.49
COC(=O)[C@H]1[C@@H](O)[C@@]2(O)c3c(OC)cc(-c4ncco4)cc3O[C@@]2(c2ccc(C#N)cc2)[C@@H]1c1cccc(N)c1 (racemic) [Racemate of compound 2]	BT474	3.33
COc1cc(-c2ncco2)cc2c1[C@]1(O)[C@H](O)[C@H](C(=O)N(C)OC)[C@@H](c3cccc(N)c3)[C@]1(c1ccc(C#N)cc1)O2 (racemic) [Racemate of compound 4]	BT474	3.04
COc1ccc([C@@]23Oc4cc(-c5ncco5)cc(OC)c4[C@]2(O)[C@@H](CN)[C@H](CO)[C@H]3c2ccccc2)cc1 (racemic) [Racemate of compound 9]	BT474	0.829

###

A collection of compounds and their measured IC50
Tested on: SK-OV-3
test method notes: Inhibition of in vitro proliferation of tumor cells (CTG, CellTiter-Glo)
Assay type: cell-based
measurement conditions: Homo sapiens, 120 h; racemates; SK-OV-3 cells; 5 days of culture; CTG reagent; read-out: Proliferation inhibitory activity IC50 (nM) SK-OV-3
Experimental: Assay objective: To detect the inhibitory effects of the drug compounds on tumor cell proliferation, for example, the inhibitory activity thereof on the in vitro proliferation of NCI-H716, NCI-H1975, NCI-H1373, NCI-H647, NCI-H520, BT474, DLD-1, NCI-N87, NUGC-4, SNU-423, MKN-45, SK-OV-3, OVCAR3, Ls174T, HCC1954, and ES2 tumor cells. […] Plate reading: The 96-well cell culture plate was taken out and placed in a microplate reader, and the chemiluminescence was measured using the microplate reader. […]
parameter: IC50 (nM)

compound	value unit	observed value
COc1ccc([C@@]23Oc4cc(OC)cc(OC)c4[C@]2(O)[C@H](O)[C@H](C(=O)N(C)C)[C@H]3c2ccccc2)cc1 [Rocaglamide, reference compound]	nM	8.52
COC(=O)[C@H]1[C@@H](O)[C@@]2(O)c3c(OC)cc(-c4ncco4)cc3O[C@@]2(c2ccc(C#N)cc2)[C@@H]1c1cccc(N)c1 (racemic) [Racemate of compound 2]	nM	2.05
